System: BV-173
Test: cells
Assay type: functional, cell-based, Homo sapiens
Conditions: Homo sapiens, BV-173
Description: SANGER: Inhibition of human BV-173 cell growth in a cell viability assay.
propertyName: IC50 (nM)
Answers are plain numbers, in nM.

For orientation, consider the following solved cases.
- compound: "COc1cc2c(Nc3ccc(NC(=O)c4ccccc4)cc3)ncnc2cc1OCCCN1CCOCC1"
  IC50 / nM: 1760
- compound: "COc1cc2ncn(-c3cc(OCc4ccccc4C(F)(F)F)c(C(N)=O)s3)c2cc1OC [GW843682X]"
  IC50 / nM: 17.7
- compound: "CC(C)CCN1c2nc(Nc3cc(F)c(O)c(F)c3)ncc2N(C)C(=O)C1C (configuration not stated)"
  IC50 / nM: 1990

We now examine a further compound.
Lab note: need IC50 with BV-173 for entry Cc1cn(-c2cc(NC(=O)c3ccc(C)c(Nc4nccc(-c5cccnc5)n4)c3)cc(C(F)(F)F)c2)cn1 , please look it up. 10.9

---

System: NCI-H1355;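 also: growth inhibition of human NCI-H1355 cells, read out by a cell viability assay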
Experiment: cells
Format: functional, cell-based, Homo sapiens
Conditions: Homo sapiens, NCI-H1355
Description: SANGER: Inhibition of human NCI-H1355 cell growth in a cell viability assay.
propertyName: IC50

For orientation, consider the following solved cases.
- molecule: "COc1cc(N2CCN(C)CC2)ccc1Nc1ncc2c(n1)N(C)c1ccccc1C(=O)N2C"
  reading: "> 8000 nM"
- molecule: "OCCCNc1cc(-c2ccnc(Nc3cccc(Cl)c3)n2)ccn1"
  reading: "24.9 nM"
- molecule: "COc1cc2ncn(-c3cc(OCc4ccccc4S(C)(=O)=O)c(C#N)s3)c2cc1OC [GSK-319347A]"
  reading: "> 5000 nM"

Batch: IC50 for all items listed.
1. Cc1ccc(-c2c(C(=O)CCl)n(CCCO)c3ncnc(N)c23)cc1
2. CCN(CC)CCNC(=O)c1c(C)[nH]c(/C=C2\C(=O)Nc3ccc(F)cc32)c1C [SUNITINIB]
3. CC(C)c1ccccc1Cc1cc(C(=O)Nc2ccc(S(=O)(=O)c3ccccc3C(C)(C)C)cc2)c(O)c(O)c1O
4. C#Cc1cccc(Nc2ncnc3cc(OCCOC)c(OCCOC)cc23)c1 [ERLOTINIB]
5. N[C@@H](CSC(c1ccccc1)(c1ccccc1)c1ccccc1)C(=O)O [S-TRITYL-L-CYSTEINE]
6. C=C(c1ccc(C(=O)O)cc1)c1cc2c(cc1C)C(C)(C)CCC2(C)C [BEXAROTENE]

1: > 4000 nM; 2: 7460 nM; 3: 1290 nM; 4: > 2000 nM; 5: 928 nM; 6: > 8000 nM

---

Tested on: ES5
Assay: cells
Type: functional, cell-based, Homo sapiens
Details: Homo sapiens, ES5
Description: SANGER: Inhibition of human ES5 cell growth in a cell viability assay.
Counter-ions that a name gives are not always drawn.
Kindly state IC50 for each of the entries shown.

- compound: "Nc1cccc2c1CN(C1CCC(=O)NC1=O)C2=O (configuration not stated) [LENALIDOMIDE]"
  IC50: "> 5000 nM"
- compound: "N[C@@H](CSC(c1ccccc1)(c1ccccc1)c1ccccc1)C(=O)O"
  IC50: "> 5120 nM"
- compound: "CCC/C=C/C=C/C(=O)O[C@H]1/C(=C/C(=O)OC)C[C@H]2C[C@H]([C@@H](C)O)OC(=O)C[C@H](O)C[C@@H]3C[C@H](OC(C)=O)C(C)(C)[C@](O)(C[C@@H]4C/C(=C/C(=O)OC)C[C@H](/C=C/C(C)(C)[C@]1(O)O2)O4)O3"
  IC50: "> 8 nM"
- compound: "OCCCNc1cc(-c2ccnc(Nc3cccc(Cl)c3)n2)ccn1"
  IC50: "> 256 nM"
- compound: "Cc1cc([N+](=O)[O-])ccc1NS(=O)(=O)c1cc(Cl)ccc1Cl"
  IC50: "> 32000 nM"

Batch: IC50 for all items listed.
1. COc1cc(-c2nn([C@H]3CC[C@H](N4CCN(C(C)=O)CC4)CC3)c3ncnc(N)c23)ccc1NC(=O)c1cc2ccccc2n1C
2. COC1=CC(c2cc3ccccc3[nH]2)=N/C1=C\c1[nH]c(C)cc1C [OBATOCLAX MESYLATE]

> 5120 nM
605 nM

---

Test system: KY821
Experiment: cells
Type: functional, cell-based, Homo sapiens
Conditions: ky821
Description: SANGER: Inhibition of human KY821 cell growth in a cell viability assay.
propertyName: IC50 (µM)
Give bare numbers, in µM.

Lab note: need IC50 with KY821 for entry BLEOMYCIN , please look it up. 471

---

Kindly state pIC50 for each of the entries shown.
Test system: EVSA-T;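 also: growth inhibition of EVSA-T cells, read out with a cell viability assay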
Assay: cells
Type: functional, cell-based, Homo sapiens
Conditions: Homo sapiens, EVSA-T
Description: SANGER: Inhibition of human EVSA-T cell growth in a cell viability assay.
Where a name gives a salt, the structure may show the parent alone.
Numbers only, as −log10 of the molar value.

For orientation, consider the following solved cases.
- compound: "N[C@@H](CSC(c1ccccc1)(c1ccccc1)c1ccccc1)C(=O)O [S-TRITYL-L-CYSTEINE]"
  pIC50: 5.47
- compound: "N#Cc1c(O)c2c(-c3ccc(-c4ccccc4O)cc3)csc2[nH]c1=O"
  pIC50: 6.42

Which value of pIC50 has been reported for COC1=CC(c2cc3ccccc3[nH]2)=N/C1=C\c1[nH]c(C)cc1C [OBATOCLAX MESYLATE] in the records? 6.09

---

System: NCI-H520;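 also: growth inhibition of NCI-H520 cells, measured by a cell viability assay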
Test: cells
Format: functional, cell-based, Homo sapiens
Settings: Homo sapiens, NCI-H520
Description: SANGER: Inhibition of human NCI-H520 cell growth in a cell viability assay.
pIC50: −log10 of the molar value.
propertyName: pIC50

- compound: "Oc1ccc2ccccc2c1SSc1c(O)ccc2ccccc12"
  pIC50: "< 4.49"

We now examine a further compound.
Which value of pIC50 has been reported for CCC/C=C/C=C/C(=O)O[C@H]1/C(=C/C(=O)OC)C[C@H]2C[C@H]([C@@H](C)O)OC(=O)C[C@H](O)C[C@@H]3C[C@H](OC(C)=O)C(C)(C)[C@](O)(C[C@@H]4C/C(=C/C(=O)OC)C[C@H](/C=C/C(C)(C)[C@]1(O)O2)O4)O3 [BRYOSTATIN 1] in the records? < 8.10

---

Kindly state IC50 for each of the entries shown.
System: HuP-T3
Test: cells
Format: functional, cell-based, Homo sapiens
Conditions: Homo sapiens, HuP-T3
Description: SANGER: Inhibition of human HuP-T3 cell growth in a cell viability assay.
Where a name gives a salt, the structure may show the parent alone.

- compound: "O=C(O)c1ccc(-c2c[nH]c3ncc(-c4ccccc4)cc23)cc1C1CCCC1"
  testedSystem: "HuP-T3"
  IC50: "> 16000 nM"

Batch: IC50 for all items listed.
1. N#Cc1c(O)c2c(-c3ccc(-c4ccccc4O)cc3)csc2[nH]c1=O
2. COc1cccc2c1C(=O)c1c(O)c3c(c(O)c1C2=O)C[C@@](O)(C(=O)CO)C[C@@H]3O[C@H]1C[C@H](N)[C@H](O)[C@H](C)O1
3. Nc1cccc2c1CN(C1CCC(=O)NC1=O)C2=O (stereo not drawn) [LENALIDOMIDE]
4. COc1cc2c(Nc3ccc(NC(=O)c4ccccc4)cc3)ncnc2cc1OCCCN1CCOCC1

1. > 1020 nM
2. 166 nM
3. > 5000 nM
4. > 4000 nM

Batch: IC50 for all items listed.
1. COC1=CC(c2cc3ccccc3[nH]2)=N/C1=C\c1[nH]c(C)cc1C [OBATOCLAX MESYLATE]
2. CS(=O)(=O)c1ccc(C(=O)Nc2ccc(Cl)c(-c3ccccn3)c2)c(Cl)c1
3. Nc1ccn([C@@H]2O[C@H](CO)[C@@H](O)C2(F)F)c(=O)n1

1. 528 nM
2. > 10000 nM
3. 146 nM

---

System: NCI-H2087;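 also: growth inhibition determined with a cell viability readout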
Test: cells
Format: functional, cell-based, Homo sapiens
Conditions: Homo sapiens, NCI-H2087
Description: SANGER: Inhibition of human NCI-H2087 cell growth in a cell viability assay.
propertyName: IC50 (µM)
One number for each entry, in µM.

- structure: "Nc1ccn([C@@H]2O[C@H](CO)[C@@H](O)C2(F)F)c(=O)n1"
  propertyName: "IC50"
  reading: 0.00214
- structure: "O=C(O)c1ccc(-c2c[nH]c3ncc(-c4ccccc4)cc23)cc1C1CCCC1"
  propertyName: "IC50"
  reading: 13.4

We now examine a further compound.
Which value of IC50 has been reported for Cn1cnc2c(F)c(Nc3ccc(Br)cc3Cl)c(C(=O)NOCCO)cc21 in the records? 1.38

---

Tested on: KNS-81-FD
Assay: cells
Type: functional, cell-based, Homo sapiens
Settings: Homo sapiens, KNS-81-FD
Description: SANGER: Inhibition of human KNS-81-FD cell growth in a cell viability assay.
pIC50: −log10 of the molar value. Counter-ions that a name gives are not always drawn.
propertyName: pIC50

For orientation, consider the following solved cases.
- compound: "COC1=CC(c2cc3ccccc3[nH]2)=N/C1=C\\c1[nH]c(C)cc1C [OBATOCLAX MESYLATE]"
  testedSystem: "KNS-81-FD"
  pIC50: 6.44
- compound: "OCCCNc1cc(-c2ccnc(Nc3cccc(Cl)c3)n2)ccn1"
  testedSystem: "KNS-81-FD"
  pIC50: "< 6.59"
- compound: "CC1(C)CNc2cc(NC(=O)c3cccnc3NCc3ccncc3)ccc21"
  testedSystem: "KNS-81-FD"
  pIC50: "< 5.70"

Batch: pIC50 for all items listed.
1. CC(C)CCN1c2nc(Nc3cc(F)c(O)c(F)c3)ncc2N(C)C(=O)C1C (stereo not drawn)
2. Nc1cccc2c1CN(C1CCC(=O)NC1=O)C2=O (stereo not drawn) [LENALIDOMIDE]
3. Oc1ccc2ccccc2c1SSc1c(O)ccc2ccccc12
4. CO[C@H]1C[C@@H]2CC[C@@H](C)[C@@](O)(O2)C(=O)C(=O)N2CCCC[C@H]2C(=O)O[C@H]([C@H](C)C[C@@H]2CC[C@@H](OC(=O)C(C)(CO)CO)[C@H](OC)C2)CC(=O)[C@H](C)/C=C(\C)[C@@H](O)[C@@H](OC)C(=O)[C@H](C)C[C@H](C)/C=C/C=C/C=C/1C
5. CCN(CC)CCCCNc1ncc2cc(-c3cc(OC)cc(OC)c3)c(NC(=O)NC(C)(C)C)nc2n1

["< 5.30", "< 5.30", "< 4.49", 6.86, "< 5.70"]

Where do the numbers come from? From ChEMBL document CHEMBL1201861.
